molecular target: receptor binding domain (RBD) of SARS-CoV-2 alpha variant (B.1.1.7) (SARS-CoV-2), P0DTC2
recorded metric: Kd (nM)

EEQAKTFLDKFNHEAEDLFYQSSGLGKGDFR (modifications not checked) [p6 peptide]	320
